System: NCI-H460 lung
Experiment: NCI tumour cell line growth inhibition, 48 h
attribute.measured: TGI

These recorded examples may help you get a feel for the data.
CC(C)(C)OC(=O)NCCC1CN(C(=O)c2ccccc2)c2ccccc21 (centres undefined) :: 56.3 µM
C#CCOCC12C=CC(O1)C1C(=O)OCC12 (centres undefined) :: > 100 µM
CN(C)c1ccc(N=Nc2ccncc2)cc1 :: > 100 µM

From here, focus on the item given below.
# input Entry CCOC(=O)c1ccc(C(=O)C(C(C)=O)C(=O)OC(C)(C)C)[nH]1 (centres undefined) : reported TGI = ?
# output > 100 µM

====

Measured TGI, listed per entry.
System: OVCAR-3 ovarian
Experiment: NCI tumour cell line growth inhibition, 48 h

CC(=O)c1c(C(F)(F)F)n([O-])c2ccc(C)cc2[n+]1=O :: > 48.2 µM
O=C(Nc1cccc(F)c1)c1cc2ccc(O)cc2oc1=Nc1ccccc1F :: 14.7 µM
O=C(/C=C/c1csc(-c2ccccc2)n1)NCc1ccc(C(=O)NCc2ccccc2)cc1 :: > 100 µM
COc1nc(N)c(N=CC(OC(C)=O)C(OC(C)=O)C(COC(C)=O)OC(C)=O)c(=O)n1C (centres undefined) :: > 100 µM
Cc1ccc(CC(C)N)cc1 (centres undefined) :: > 100 µM
Cc1cccc(NC(=O)c2sc3nc4c(cc3c2N)CN(Cc2ccccc2)CC4)c1C :: 31.9 µM
CC1(C)N=C(N)N=C(N)N1c1ccc(CCCCc2ccc(S(=O)(=O)F)cc2)c(Cl)c1 :: 17.4 µM
COc1ccc(-c2cc(=O)c3c(OC)c(OC)c(OC)c(OC)c3o2)cc1 :: > 100 µM

With those in mind, consider the next compound.
# input What TGI value was documented for this compound, c1ccc(CSCCc2ccncc2)cc1 ?
# output > 100 µM
